- System name: Macaca fascicularis IL-36R extracellular domain expressed with a C-terminal myc-myc-hexahistidine tag (mfIL-36R-MMH) (Macaca fascicularis)
- Assay name: SPR Biacore 4000, mAb captured on anti-hFc, 37C
Metric: koff

Report measured koff; entry is H4H14700P2 (antibody, human IgG4 S228P, kappa, V domains shown) VH: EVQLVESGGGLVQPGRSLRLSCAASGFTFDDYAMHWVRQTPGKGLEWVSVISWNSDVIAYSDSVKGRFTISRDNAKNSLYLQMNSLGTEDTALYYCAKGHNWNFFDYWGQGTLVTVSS VL: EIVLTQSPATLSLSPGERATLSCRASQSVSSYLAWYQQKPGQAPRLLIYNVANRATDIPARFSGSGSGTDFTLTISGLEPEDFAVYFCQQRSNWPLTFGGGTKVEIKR
0.00198 s⁻¹

Taken from patent US20200017592A1.
